Catalogue of molecules with associated IC50
biological target: KRAS G12V (Homo sapiens (Human), UniProt P01116+P62937, G12V); experiment: Ras-Raf (BRAF RBD) disruption / FRET / MOA assay, KRAS G12V; assay type: biochemical; details: read-out: IC50* KRAS G12V FRET data
Sequence (P01116-2 other isoform, or with tags, fused parts or gaps G12V, one chain of several): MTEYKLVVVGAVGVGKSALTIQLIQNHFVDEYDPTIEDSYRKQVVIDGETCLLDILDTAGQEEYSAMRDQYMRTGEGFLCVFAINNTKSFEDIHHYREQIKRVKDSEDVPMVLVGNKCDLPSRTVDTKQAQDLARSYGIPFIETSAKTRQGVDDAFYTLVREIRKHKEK
propertyMeasured: IC50

1) C=CC(=O)NC1CN(C(=O)N(C)[C@H](C(=O)N[C@H]2Cc3nc(cs3)-c3ccc4c(c3)c(c(-c3cccnc3[C@H](C)OC)n4CC)CC(C)(C)COC(=O)[C@@H]3CCCN(N3)C2=O)C(C)C)C1 (atropisomer, axis not shown) [Example A490] : 0.1 to 1 µM
2) C=CC(=O)N1CC[C@H](C(=O)N(C)[C@H](C(=O)N[C@H]2Cc3cccc(c3)-c3ccc4c(c3)c(c(-c3cccnc3[C@H](C)OC)n4CC(F)(F)F)CC(C)(C)COC(=O)[C@@H]3CCCN(N3)C2=O)C(C)C)C1 (atropisomer, axis not shown) [Example A332] : 1 to 10 µM

====

biological target: NRAS Q61K (Homo sapiens (Human), UniProt P01111+P62937, Q61K); test: Ras-Raf (BRAF RBD) disruption / FRET / MOA assay, NRAS Q61K; assay type: biochemical; conditions: NRAS Q61K; Ras-Raf disruption/FRET/MOA assay; read-out: IC50* NRAS Q61K FRET data
Sequence (P01111 whole entry Q61K, one chain of several): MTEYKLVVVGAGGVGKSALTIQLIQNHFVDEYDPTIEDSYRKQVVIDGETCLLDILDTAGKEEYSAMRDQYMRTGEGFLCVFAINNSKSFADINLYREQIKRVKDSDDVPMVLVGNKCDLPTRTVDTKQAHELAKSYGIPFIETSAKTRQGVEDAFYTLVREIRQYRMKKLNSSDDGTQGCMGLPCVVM
propertyMeasured: IC50

1) C=CC(=O)N1C[C@@H]2CN(C(=O)N(C)[C@H](C(=O)N[C@H]3Cc4nc(cs4)-c4ccc5c(c4)c(c(-c4cccnc4[C@H](C)OC)n5CC)CC(C)(C)COC(=O)[C@@H]4CCCN(N4)C3=O)C(C)C)[C@@H]2C1 (atropisomer, axis not shown) : 100 to 1000 nM
2) C=CC(=O)N1C[C@@H]2CN(C(=O)N(C)[C@H](C(=O)N[C@H]3Cc4nc(cs4)-c4ccc5c(c4)c(c(-c4cccnc4[C@H](C)OC)n5CC)CC(C)(C)COC(=O)[C@@H]4CCCN(N4)C3=O)C(C)C)C[C@@H]2C1 (atropisomer, axis not shown) : 10 to 100 nM
3) CCn1c(-c2cccnc2[C@H](C)OC)c2c3cc(ccc31)-c1csc(n1)C[C@H](NC(=O)[C@H](C(C)C)N(C)C(=O)N1CCC3(CC1)CN(C(=O)/C=C/CN1CCOCC1)C3)C(=O)N1CCC[C@H](N1)C(=O)OCC(C)(C)C2 (atropisomer, axis not shown) : 10 to 100 nM
4) CO[C@@H](C)c1ncccc1-c1c2c3cc(ccc3n1CC(F)(F)F)-c1cc(cc(C(F)F)c1)C[C@H](NC(=O)[C@@H](COC1CN(C(=O)C#CC(C)(C)N(C)C)C1)C(C)C)C(=O)N1CCC[C@H](N1)C(=O)OCC(C)(C)C2 (atropisomer, axis not shown) : > 10000 nM

====

Catalogue of molecules with associated IC50
target: K-Ras G12C (Homo sapiens (Human), UniProt P01116+P62937, G12C); experiment: Ras-Raf (BRAF RBD) disruption / FRET / MOA assay, KRAS G12C; type: biochemical; conditions: KRAS G12C; Ras-Raf disruption/FRET/MOA assay; read-out: IC50* KRAS G12C FRET data
Sequence (P01116-2 other isoform, or with tags, fused parts or gaps G12C): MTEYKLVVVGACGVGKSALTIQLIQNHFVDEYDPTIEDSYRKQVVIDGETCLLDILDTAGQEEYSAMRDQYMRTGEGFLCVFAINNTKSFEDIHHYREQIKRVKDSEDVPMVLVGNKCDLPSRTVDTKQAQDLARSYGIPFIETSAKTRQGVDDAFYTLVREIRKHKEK
Sequence (P62937 whole entry): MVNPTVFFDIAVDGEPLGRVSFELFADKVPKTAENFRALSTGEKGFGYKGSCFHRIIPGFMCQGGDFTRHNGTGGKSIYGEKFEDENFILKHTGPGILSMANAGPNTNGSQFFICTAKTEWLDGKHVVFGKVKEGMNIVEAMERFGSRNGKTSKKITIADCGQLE
propertyMeasured: IC50

1) C=CC(=O)N1CC[C@H](C(=O)N(C)[C@H](C(=O)N(C)[C@H]2Cc3cc(O)cc(c3)-c3ccc4c(c3)c(c(-c3cccnc3COC)n4CC)CC(C)(C)COC(=O)[C@@H]3CCCN(N3)C2=O)C(C)C)C1 : > 10000 nM
2) C=CC(=O)N1CC[C@H](C(=O)N(C)[C@H](C(=O)N[C@H]2Cc3cccc(c3)-c3ccc4c(c3)c(c(-c3cc(C5=CCN(C)CC5)cnc3[C@H](C)OC)n4CC)CC(C)(C)COC(=O)[C@@H]3CCCN(N3)C2=O)C(C)C)C1 (atropisomer, axis not shown) [Example A513] : 10 to 100 nM
3) C=CC(=O)N1CC[C@H](C(=O)N(C)[C@H](C(=O)N[C@H]2Cc3cccc(c3)-c3ccc4c(c3)c(c(-c3ccccc3[C@H](C)OC)n4CC)CC(C)(C)COC(=O)[C@@H]3CCCN(N3)C2=O)C(C)C)C1 (atropisomer, axis not shown) : > 10000 nM
4) C=CC(=O)N1CC(OC(=O)N(C)[C@H](C(=O)N[C@H]2Cc3cccc(c3)-c3ccc4c(c3)c(c(-c3cccnc3[C@H](C)OC)n4CC)CC(C)(C)COC(=O)[C@@H]3CCCN(N3)C2=O)C(C)C)C1 (atropisomer, axis not shown) : 10 to 100 nM

====

target: K-Ras G12C (Homo sapiens (Human), UniProt P01116+P62937, G12C); test: Ras-Raf (BRAF RBD) disruption / FRET / MOA assay, KRAS G12C; type: biochemical; details: KRAS G12C; Ras-Raf disruption/FRET/MOA assay; read-out: IC50* KRAS G12C FRET data
pIC50: −log10 of the molar value.
propertyMeasured: pIC50

1) C=CC(=O)N1C[C@@H](C)[C@H](C(=O)N(C)[C@H](C(=O)N[C@H]2Cc3cccc(c3)-c3ccc4c(c3)c(c(-c3cccnc3[C@H](C)OC)n4CC)CC(C)(C)COC(=O)[C@@H]3CCCN(N3)C2=O)C(C)C)C1 (atropisomer, axis not shown) [Example A497] : 6.00 to 7.00
2) C=CC(=O)N1CCC(F)(C(=O)N(C)[C@H](C(=O)N[C@H]2Cc3nc(cs3)-c3ccc4c(c3)c(c(-c3cccnc3[C@H](C)OC)n4CC)CC(C)(C)COC(=O)[C@@H]3CCCN(N3)C2=O)C(C)C)CC1 (atropisomer, axis not shown) [Example A700] : 7.00 to 8.00

====

Biological target: KRAS G12D (Homo sapiens (Human), UniProt P01116+P62937, G12D)
Sequence (P01116-2 other isoform, or with tags, fused parts or gaps G12D, one chain of several): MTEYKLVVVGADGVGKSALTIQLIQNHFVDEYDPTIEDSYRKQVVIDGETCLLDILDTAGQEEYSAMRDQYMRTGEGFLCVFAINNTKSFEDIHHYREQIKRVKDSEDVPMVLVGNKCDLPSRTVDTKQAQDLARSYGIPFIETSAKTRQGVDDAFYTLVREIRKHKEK
Assay: Ras-Raf (BRAF RBD) disruption / FRET / MOA assay, KRAS G12D
Type: biochemical
Conditions: Ras-Raf disruption/FRET/MOA assay; class symbols; read-out: KRAS G12D FRET data IC50
Description: The purpose of this biochemical assay is to measure the ability of test compounds to facilitate ternary complex formation between a nucleotide-loaded Ras isoform and cyclophilin A; the resulting ternary complex disrupts binding to a BRAF^RBD construct, inhibiting Ras signaling through a RAF effector. Compound is present in plate wells as a 10-point 3-fold dilution series starting at a final concentration of 30 μM. […]
Catalogue of compounds with associated IC50
propertyMeasured: IC50

1. CCn1c(-c2cccnc2[C@H](C)OC)c2c3cc(ccc31)-c1cccc(c1)C[C@H](NC(=O)[C@H](C(C)C)N1CC[C@@]3(CCN(C(=O)C#C[C@@H]4COCCN4C)C3)C1=O)C(=O)N1CCC[C@H](N1)C(=O)OCC(C)(C)C2 (atropisomer, axis not shown) : > 10 µM
2. C=CC(=O)N1C[C@H](C(=O)N(C)[C@H](C(=O)N[C@H]2Cc3cccc(c3)-c3ccc4c(c3)c(c(-c3cccnc3[C@H](C)OC)n4CC)CC(C)(C)COC(=O)[C@@H]3CCCN(N3)C2=O)C(C)C)[C@@H](C)C1 (atropisomer, axis not shown) : 1 to 10 µM
3. CCn1c(-c2cccnc2[C@H](C)OC)c2c3cc(ccc31)-c1cccc(c1)C[C@H](NC(=O)[C@H](C(C)C)N(C)C(=O)[C@H]1CCN(C(=O)C#C[C@]3(C)CCCN3C)C1)C(=O)N1CCC[C@H](N1)C(=O)OCC(C)(C)C2 : > 10 µM
4. CCn1c(-c2cccnc2[C@H](C)OC)c2c3cc(ccc31)-c1nsc(n1)C[C@H](NC(=O)[C@H](C(C)C)N(C)C(=O)[C@H]1CCN(C(=O)C#CCN3CCOCC3)C1)C(=O)N1CCC[C@H](N1)C(=O)OCC(C)(C)C2 (atropisomer, axis not shown) : > 10 µM

====

molecular target: NRAS WT (Homo sapiens (Human), UniProt P01111+P62937); experiment: Ras-Raf (BRAF RBD) disruption / FRET / MOA assay, NRAS WT; format: biochemical; conditions: read-out: IC50* NRAS WT FRET data
Sequence (P01111 whole entry, one chain of several): as the sequence (P01111 whole entry Q61K, one chain of several) above, with K61Q counted along it
Catalogue of compounds with associated IC50
propertyMeasured: IC50

1) C=CC(=O)C1CC[C@H](C(=O)N(C)[C@H](C(=O)N[C@H]2Cc3nsc(n3)-c3ccc4c(c3)c(c(-c3cccnc3[C@H](C)OC)n4CC)CC(C)(C)COC(=O)[C@@H]3CCCN(N3)C2=O)C(C)C)C1 (stereo partly shown) : 1000 to 10000 nM
2) C=CC(=O)N1CC[C@]2(C1)OCN([C@H](C(=O)N[C@H]1Cc3cccc(c3)-c3ccc4c(c3)c(c(-c3cccnc3[C@H](C)OC)n4CC)CC(C)(C)COC(=O)[C@@H]3CCCN(N3)C1=O)C(C)C)C2=O (atropisomer, axis not shown) : 1000 to 10000 nM
3) C=CC(=O)N1CC[C@H](C(=O)N(C)[C@H](C(=O)N[C@H]2Cc3cc(O)cc(c3)-c3ccc4c(c3)c(c(-c3cccnc3[C@H](CC)OC)n4CC)CC(C)(C)COC(=O)[C@@H]3CCCN(N3)C2=O)C(C)C)C1 (atropisomer, axis not shown) : 100 to 1000 nM
4) C=CC(=O)N1C[C@@H](C)N(C(=O)N(C)[C@H](C(=O)N[C@H]2Cc3nc(cs3)-c3ccc4c(c3)c(c(-c3cccnc3[C@H](C)OC)n4CC)CC(C)(C)COC(=O)[C@@H]3CCCN(N3)C2=O)C(C)C)[C@@H](C)C1 (atropisomer, axis not shown) : 10 to 100 nM
